Origin of values: PubChem BioAssay

# assay explanation: stimulators of nuclear beta-catenin in C2C12, primary screen, imaging, WNT3A-conditioned medium, mouse C2C12, NPC library (AID 1117326); further: reference of the scale not given here
# measurement setup: stimulation, at 2 µM, stronger effect = higher value
I'd be grateful if you could share measured nuclear beta-catenin stimulation for these entries.
Give just the number in %; leave the unit off.

Endpoint output: nuclear beta-catenin stimulation of COC(c1ccccc1)(c1ccccc1)[C@H](Oc1nc(C)cc(C)n1)C(=O)O . Value?
0

Endpoint output: nuclear beta-catenin stimulation of O=C(Oc1cccc2cccnc12)c1ccccc1 . Value?
0.5

Endpoint output: nuclear beta-catenin stimulation of NC(=O)OCC(O)COc1ccc(Cl)cc1 (stereo unspecified) . Value?
-0.6

Endpoint output: nuclear beta-catenin stimulation of C[C@H]1C[C@H]2[C@@H]3CCC4=CC(=O)C=C[C@]4(C)[C@H]3C(=O)C[C@]2(C)[C@@]1(O)C(=O)CO . Value?
1.2

Endpoint output: nuclear beta-catenin stimulation of O=c1[nH]c2ccccc2n1CCCN1CCN(C(c2ccccc2)c2ccccc2)CC1 . Value?
2

Endpoint output: nuclear beta-catenin stimulation of C[C@H](O)CN(C)C . Value?
1.5

###

I'd be grateful if you could share measured z-score for these entries.
# assay explanation: survival rescue of mitochondrial mutant cells in low glucose, primary screen, MELAS cybrids, Rieske KO mouse fibroblasts, CellTiter-Glo (AID 1508586);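 further: z relative to plate mean and SD of compound and empty wells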
# measurement setup: MELAS cybrid survival, CellTiter-Glo 48 h, stronger effect = higher value
Active and inactive are the calls of the source.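 How the source made its calls: active means mean z-score across replicates of 1.96 or higher in either the MELAS or the Rieske mutant cell line; inactive means the rest.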

Endpoint output: z-score of CNCCC=C1c2ccccc2CCc2ccccc21 . Value?
-0.337 (inactive)

Endpoint output: z-score of COc1c(C)c2c(c(O)c1C/C=C(\C)CCC(=O)OCCN1CCOCC1)C(=O)OC2 . Value?
-0.954 (inactive)

Endpoint output: z-score of COC(=O)N[C@H](C(=O)N[C@@H](Cc1ccccc1)[C@@H](O)CN(Cc1ccc(-c2ccccn2)cc1)NC(=O)[C@@H](NC(=O)OC)C(C)(C)C)C(C)(C)C . Value?
-0.0891 (inactive)

Endpoint output: z-score of COc1c2ccoc2cc2oc(=O)ccc12 . Value?
-0.332 (inactive)

Endpoint output: z-score of CC(=O)N[C@@H](CC(C)C)C(=O)O . Value?
0.637 (inactive)

Endpoint output: z-score of CC(C)(C)NC[C@H](O)COc1cccc2c1CCCC2=O . Value?
0.581 (inactive)

Endpoint output: z-score of C#C[C@]1(OC(C)=O)CC[C@H]2[C@@H]3CCC4=C[C@@H](OC(C)=O)CC[C@@H]4[C@H]3CC[C@@]21C . Value?
-0.135 (inactive)

Endpoint output: z-score of C[C@]12CC[C@H]3[C@@H](CCC4=CC(=O)CC[C@@]43C)[C@@H]1CC[C@@H]2C(=O)CO . Value?
-0.237 (inactive)

Endpoint output: z-score of CC(=O)Nc1ncc([N+](=O)[O-])s1 . Value?
-0.179 (inactive)

Endpoint output: z-score of Nc1nc(Cl)nc2c1ncn2[C@@H]1O[C@H](CO)[C@@H](O)[C@@H]1F . Value?
-2.1

Endpoint output: z-score of CCN(CC)CCc1nc(-c2ccccc2)no1 . Value?
0.0836 (inactive)

Endpoint output: z-score of CC(=O)[C@@]1(O)CC[C@H]2[C@@H]3CCC4=CC(=O)CC[C@]4(C)[C@H]3CC[C@@]21C . Value?
-0.428 (inactive)

Endpoint output: z-score of O=C(O)c1cc(N=Nc2ccc(O)c(C(=O)O)c2)ccc1O . Value?
-0.277 (inactive)

Endpoint output: z-score of Nc1c(CC(=O)O)cccc1C(=O)c1ccccc1 . Value?
-0.237 (inactive)

Endpoint output: z-score of COC(=O)C(c1ccccc1Cl)N1CCc2sccc2C1 (stereo not given) . Value?
-0.416 (inactive)

Endpoint output: z-score of CC(C)(CO)[C@@H](O)C(=O)NCCCO . Value?
0.185 (inactive)

Endpoint output: z-score of CO/N=C(\C(=O)N[C@@H]1C(=O)N2C(C(=O)O)=C(COC(N)=O)CS[C@H]12)c1ccco1 . Value?
-0.736 (inactive)

Endpoint output: z-score of CC1(C)[C@@H](OC(=O)CCC(=O)O)CC[C@]2(C)[C@H]3C(=O)C=C4[C@@H]5C[C@@](C)(C(=O)O)CC[C@]5(C)CC[C@@]4(C)[C@]3(C)CC[C@@H]12 . Value?
0.704 (inactive)

Endpoint output: z-score of CC(C)(C)C(=O)OCOC(=O)[C@@H]1N2C(=O)[C@@H](NC(=O)[C@H](N)c3ccccc3)[C@H]2SC1(C)C . Value?
-1.1 (inactive)

Endpoint output: z-score of COCC(=O)Nc1c(I)c(C(=O)NCC(O)CO)c(I)c(C(=O)N(C)CC(O)CO)c1I (stereo not given) . Value?
-0.386 (inactive)
